assay: in vivo; conditions: male, Lewis, rat, po
observed-property: half-life

Value lookup for half-life; key = CN1CCN(CC(=O)N2c3ccccc3C(=O)Nc3cccnc32)CC1 [AC-91, pirenzepine] ~12 h

====

assay: in vivo; conditions: male, Lewis, rat, po, 50 mg/kg
observed-property: concentration at 6 h

Fill in: concentration at 6 h of "O=C1Nc2cccnc2Nc2ccccc21" is ___ ~75 nM

====

assay: in vivo; details: male, Lewis, rat, po, 50 mg/kg
observed-property: concentration at 3 h

Recorded concentration at 3 h of O=C1Nc2cccnc2Nc2ccccc21 [AC-92, LS-75] , please. ~20 nM

These entries and their values trace back to patent US20100247688A1.
